The measurements presented in this section are drawn from ChEMBL document CHEMBL1146900.

# System: Mu-type opioid receptor (Homo sapiens, UniProt P35372)
# Sequence (P35372 whole entry): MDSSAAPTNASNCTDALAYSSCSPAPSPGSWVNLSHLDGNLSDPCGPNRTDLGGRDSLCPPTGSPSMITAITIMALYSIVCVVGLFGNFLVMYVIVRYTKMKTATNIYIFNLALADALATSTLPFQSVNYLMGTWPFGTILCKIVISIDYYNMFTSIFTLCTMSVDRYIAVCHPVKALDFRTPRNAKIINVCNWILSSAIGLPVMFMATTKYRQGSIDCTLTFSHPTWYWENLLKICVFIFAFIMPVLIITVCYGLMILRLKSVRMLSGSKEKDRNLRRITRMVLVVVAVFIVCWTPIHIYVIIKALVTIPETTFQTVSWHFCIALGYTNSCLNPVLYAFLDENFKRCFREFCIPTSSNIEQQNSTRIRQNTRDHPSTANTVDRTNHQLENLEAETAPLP
Property measured: Ki (nM)

[[record]]
molecule = "Cc1cc(O)cc(C)c1C[C@H](N)C(=O)N1Cc2ccccc2C[C@H]1C(=O)NCCC(=O)Oc1ccc2c(c1)[C@@]13CCCC[C@H]1[C@@H](C2)N(CC1CCC1)CC3"
readout_unit = "nM"
measurement = 0.69


* * *

# System: Delta-type opioid receptor (Homo sapiens)
# Assay overview: Antagonist activity against human delta opioid receptor expressed in CHO cells assessed as inhibition of SNC80-stimulated [35S]GTP-gamma-S binding
pIC50: −log10 of the molar value. Non-standard residues stand in square brackets, D forms with d. Residues, ends and D or L forms follow the SMILES beside them. Dmt = Cc1cc(O)cc(C)c1C[C@H](N)C(=O)O; Tic = O=C(O)[C@@H]1Cc2ccccc2CN1; βAla = NCCC(=O)O
Property measured: pIC50

[[record]]
compound = "Cc1cc(O)cc(C)c1C[C@H](N)C(=O)N1Cc2ccccc2C[C@H]1C(=O)NCCC(=O)O (H-[Dmt]-[Tic]-[βAla]-OH)"
property_measured = "pIC50"
measurement = 8.00

[[record]]
compound = "Cc1cc(O)cc(C)c1C[C@H](N)C(=O)N1Cc2ccccc2C[C@H]1C(=O)NCCC(=O)Oc1ccc2c(c1)[C@@]13CCCC[C@H]1[C@@H](C2)N(CC1CCC1)CC3"
property_measured = "pIC50"
measurement = 8.41


* * *

# System: Kappa-type opioid receptor (Homo sapiens, UniProt P41145)
# Sequence (P41145 whole entry): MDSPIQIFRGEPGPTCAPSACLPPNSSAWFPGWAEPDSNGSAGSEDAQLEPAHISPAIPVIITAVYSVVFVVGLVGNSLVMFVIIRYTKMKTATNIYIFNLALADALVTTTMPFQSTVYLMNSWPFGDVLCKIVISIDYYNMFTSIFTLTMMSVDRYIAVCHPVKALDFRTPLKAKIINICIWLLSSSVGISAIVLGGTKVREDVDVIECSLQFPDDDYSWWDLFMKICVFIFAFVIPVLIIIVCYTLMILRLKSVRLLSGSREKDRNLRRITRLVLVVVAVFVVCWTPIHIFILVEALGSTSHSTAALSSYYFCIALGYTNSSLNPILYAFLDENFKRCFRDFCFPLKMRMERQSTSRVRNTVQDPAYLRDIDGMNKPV
# Assay overview: Agonist activity at human kappa opioid receptor expressed in CHO cells assessed as stimulation of [35S]GTPgammaS binding
Property measured: EC50 (nM)

[[record]]
molecule = "Cc1cc(O)cc(C)c1C[C@H](N)C(=O)N1Cc2ccccc2C[C@H]1C(=O)NCCC(=O)Oc1ccc2c(c1)[C@@]13CCCC[C@H]1[C@@H](C2)N(CC1CCC1)CC3"
readout_unit = "nM"
measurement = 6


* * *

# System: Mu-type opioid receptor (Homo sapiens)
# Assay overview: Antagonist activity against human mu opioid receptor expressed in CHO cells assessed as inhibition of DAMGO-stimulated [35S]GTP-gamma-S binding
# Type: functional, cell-based
Property measured: IC50 (nM)

[[record]]
molecule = "Cc1cc(O)cc(C)c1C[C@H](N)C(=O)N1Cc2ccccc2C[C@H]1C(=O)NCCC(=O)Oc1ccc2c(c1)[C@@]13CCCC[C@H]1[C@@H](C2)N(CC1CCC1)CC3"
property_measured = "IC50"
readout_unit = "nM"
measurement = 97


* * *

# System: Kappa-type opioid receptor (Homo sapiens)
# Assay overview: Inhibition of [3H]U-69593 binding to human kappa opioid receptor expressed in CHO cells at 10 uM
# Assay type: cell-based
Property measured: Ki (nM)

[[record]]
molecule = "Cc1cc(O)cc(C)c1C[C@H](N)C(=O)N1Cc2ccccc2C[C@H]1C(=O)NCCC(=O)Oc1ccc2c(c1)[C@@]13CCCC[C@H]1[C@@H](C2)N(CC1CCC1)CC3"
property_measured = "Ki"
measurement = 0.28


* * *

Consider the following compounds and their measured Ki readings.
# System: Delta-type opioid receptor (Homo sapiens, UniProt P41143)
# Sequence (P41143 whole entry): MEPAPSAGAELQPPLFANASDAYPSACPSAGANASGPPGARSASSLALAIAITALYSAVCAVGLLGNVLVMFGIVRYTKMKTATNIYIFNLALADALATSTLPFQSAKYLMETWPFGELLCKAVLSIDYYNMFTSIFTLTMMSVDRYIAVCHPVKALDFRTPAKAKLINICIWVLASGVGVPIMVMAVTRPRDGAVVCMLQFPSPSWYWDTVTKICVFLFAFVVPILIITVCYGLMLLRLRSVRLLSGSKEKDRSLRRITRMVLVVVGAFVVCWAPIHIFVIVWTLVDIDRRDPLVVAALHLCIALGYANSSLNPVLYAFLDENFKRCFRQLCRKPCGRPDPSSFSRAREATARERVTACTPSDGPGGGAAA
# Assay overview: Displacement of [3H]naltrindole from human delta opioid receptor expressed in CHO cells
Non-standard residues stand in square brackets, D forms with d. Residues, ends and D or L forms follow the SMILES beside them. Dmt = Cc1cc(O)cc(C)c1C[C@H](N)C(=O)O; Tic = O=C(O)[C@@H]1Cc2ccccc2CN1; βAla = NCCC(=O)O
Property measured: Ki (nM)

[[record]]
compound = "Cc1cc(O)cc(C)c1C[C@H](N)C(=O)N1Cc2ccccc2C[C@H]1C(=O)NCCC(=O)O (H-[Dmt]-[Tic]-[βAla]-OH)"
measurement = 4.2

[[record]]
compound = "Cc1cc(O)cc(C)c1C[C@H](N)C(=O)N1Cc2ccccc2C[C@H]1C(=O)NCCC(=O)Oc1ccc2c(c1)[C@@]13CCCC[C@H]1[C@@H](C2)N(CC1CCC1)CC3"
measurement = 1.5

